Molecular target: IGFR-1 (Homo sapiens)
Construct: Kinases are expressed as either kinase domains or full length constructs; made in house
Sequence (P08069 31-1367): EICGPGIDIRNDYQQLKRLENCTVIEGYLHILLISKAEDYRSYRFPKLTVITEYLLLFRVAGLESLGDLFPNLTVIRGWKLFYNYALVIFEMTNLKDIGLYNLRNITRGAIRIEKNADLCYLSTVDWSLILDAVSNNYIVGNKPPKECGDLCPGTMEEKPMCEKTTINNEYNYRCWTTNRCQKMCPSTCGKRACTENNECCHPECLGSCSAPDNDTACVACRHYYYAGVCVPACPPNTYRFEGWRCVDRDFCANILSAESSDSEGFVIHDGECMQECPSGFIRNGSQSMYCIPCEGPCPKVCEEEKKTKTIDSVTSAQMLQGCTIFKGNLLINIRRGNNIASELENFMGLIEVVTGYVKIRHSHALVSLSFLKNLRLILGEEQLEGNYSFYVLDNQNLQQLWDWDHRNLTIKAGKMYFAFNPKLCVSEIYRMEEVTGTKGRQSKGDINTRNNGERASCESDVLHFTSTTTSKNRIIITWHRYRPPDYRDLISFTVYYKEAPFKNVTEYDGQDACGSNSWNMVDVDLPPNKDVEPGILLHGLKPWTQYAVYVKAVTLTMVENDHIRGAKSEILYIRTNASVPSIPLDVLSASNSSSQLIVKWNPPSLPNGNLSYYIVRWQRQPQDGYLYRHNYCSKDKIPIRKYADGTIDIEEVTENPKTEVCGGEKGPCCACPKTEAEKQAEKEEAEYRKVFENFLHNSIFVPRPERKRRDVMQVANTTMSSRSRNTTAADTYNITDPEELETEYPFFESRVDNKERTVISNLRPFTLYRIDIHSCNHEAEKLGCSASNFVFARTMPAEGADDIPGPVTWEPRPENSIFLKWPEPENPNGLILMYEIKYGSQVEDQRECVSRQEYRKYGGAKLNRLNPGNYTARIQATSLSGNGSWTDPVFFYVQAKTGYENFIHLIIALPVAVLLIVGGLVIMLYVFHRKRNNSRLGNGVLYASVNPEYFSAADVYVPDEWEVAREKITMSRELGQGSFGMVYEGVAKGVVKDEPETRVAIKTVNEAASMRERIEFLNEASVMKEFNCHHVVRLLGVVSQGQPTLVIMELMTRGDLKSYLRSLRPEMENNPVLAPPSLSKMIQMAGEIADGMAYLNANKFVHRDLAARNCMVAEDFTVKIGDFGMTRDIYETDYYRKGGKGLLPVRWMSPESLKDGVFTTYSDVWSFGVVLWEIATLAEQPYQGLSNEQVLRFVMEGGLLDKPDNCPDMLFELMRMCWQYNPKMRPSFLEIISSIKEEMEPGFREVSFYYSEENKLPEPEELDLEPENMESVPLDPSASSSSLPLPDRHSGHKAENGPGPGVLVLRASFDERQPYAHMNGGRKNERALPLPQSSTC
Assay: Kinase inhibition assay, IGFR-1 (Table 2)
Format: biochemical
Conditions: Table 2, kinase inhibition class
assay-metric: IC50

Use the examples below as a reference point.
Cc1ccc2c(c1)CCCN2c1ncnc(NCCc2c[nH]c3ccccc23)n1 : > 11.7 µM
COc1cc(Nc2ncnc(-n3c(NCc4ccccn4)nc4ccccc43)n2)cc(OC)c1OC : 7.22 to 9.29 µM
COc1cc(Nc2ncnc(N(C)c3ccc(F)c(Cl)c3)n2)cc(OC)c1OC : 5.72 to 8.34 µM
COc1ccc(Nc2ncnc(NCCCN3CCCCC3C)n2)cc1OC (stereo not shown) : > 11.6 µM
COc1ccc(Nc2ncnc(N(C)c3ccc(Cl)c(Cl)c3)n2)cc1OC : 5.91 to 8.61 µM
COc1ccc(Nc2ncnc(NCCCN3CCN(C)CC3)n2)cc1OC : > 11.6 µM
Cc1cccc(Nc2ncnc(Nc3cc(-c4ccccc4)n[nH]3)n2)c1 : < 1.16 µM
COC(=O)Cc1cccc(Nc2ncnc(-n3c(NCc4ccccc4)nc4ccccc43)n2)c1 : > 9.67 µM
COc1ccc(Nc2ncnc(Nc3cc(OC)c(OC)c(OC)c3)n2)cc1OCCN1CCOCC1 : > 8.78 µM
CCN(c1ccc(C)cc1)c1ncnc(Nc2cc(OC)c(OC)c(OC)c2)n1 : < 1.01 µM

# compound COc1ccc2c(c1)CCCN2c1ncnc(Nc2cc(OC)c(OC)c(OC)c2)n1 ; its IC50 = 0.945 to 5.67 µM

Measured IC50 of COc1cc(Nc2ncnc(Nc3ccc4c(cnn4Cc4ccccc4)c3)n2)cc(OC)c1OC : 0.827 to 4.96 µM

For C=CCNc1ncccc1-c1ncnc(Nc2cc(OC)c(OC)c(OC)c2)n1 the compound record lists IC50 as > 11.4 µM

Sample COc1cc(Nc2ncnc(-n3c(NCc4ccc([N+](=O)[O-])cc4)nc4ccccc43)n2)cc(OC)c1OC ; IC50 observed: 0.757 to 4.54 µM

Briefly, IC50 measured for COc1cc(Nc2ncnc(-n3c(NC4CCCc5ccccc54)nc4ccccc43)n2)cc(OC)c1OC (stereo not shown) : 6.68 to 8.59 µM

compound CN(c1ccccc1)c1ncnc(-n2c(N)nc3ccccc32)n1 , IC50 observed: 11 to 14.2 µM

The compound listed as COc1cc(Nc2ncnc(-n3c(=O)[nH]c4ccccc43)n2)cc(OC)c1OCCN1CCOCC1 has a reported IC50 of 7.09 to 9.12 µM

Lab book: IC50 of CN(c1cccc(Cl)c1)c1ncnc(Nc2cccc(CC(=O)O)c2)n1 noted as > 12.2 µM

Value of measured IC50 for the entry Nc1nc2ccccc2n1-c1ncnc(Nc2ccccn2)n1 : 1.31 to 7.89 µM
